- PROTOCOL SUMMARY: soluble on expression in E. coli; label from the status in PepcDB or PDB records

| BIOPOLYMER SEQUENCE | soluble on expression in E. coli |
| --- | --- |
| MSLTTLNIGLILPDVLGTYGDDGNALVLRQRARMRGINAEIQRVTLDDAVPSTLDLYCLGGGEDTAQILATEHLTKDGGLQTAAAAGRPIFAVCAGLQVLGDSFRAAGRVIDGLGLIDATTVSLQKRAIGEVETTPTRAGFTAELTERLTGFENHMGATLLGPDAEPLGRVVRGEGNTDVWAASENTDDQRQQFAEGAVQGSIIATYMHGPALARNPQLADLMLAKAMGVALKDLEPLDIDVIDRLRAERLAEGHHHHHH | soluble |
| MKPGIVKFALNVWPPFWGAGIKILHISEDFRTVKVRLKLRWWNKNANRTQYGGSIFSLTDPIYSLMLMGILREEYYVWDKEASINFIKPGQSDLFAEFEITDGMLDEIYQMTRNGEKCFPEFITHVKDKQGNVVSEVQRKLYVRKLEHHHHHH | soluble |

Reference source for all entries: the DeepSol protein solubility set
